experiment: physchem; settings: pH 2
chromatographic logD values by entry
quantity.name: chromatographic logD

[
  {
    "substance.smiles": "COc1ccc(-n2c(-c3ccc(C(C)C)cc3)cc(CN3CCOCC3)c2C)cc1",
    "observed.measurement": 1.35
  },
  {
    "substance.smiles": "CCc1ccc(-c2cc(CN3CCOCC3)c(C)n2-c2ccc(OC)cc2)cc1",
    "observed.measurement": 1.21
  },
  {
    "substance.smiles": "COc1ccc(-c2cc(CN3CCOCC3)c(C)n2-c2ccc(C)cc2)cc1",
    "observed.measurement": 1.02
  },
  {
    "substance.smiles": "Cc1ccc(-c2cc(CN3CCSCC3)c(C)n2-c2ccc(F)cc2)cc1",
    "observed.measurement": 1.31
  },
  {
    "substance.smiles": "Cc1ccc(-c2cc(CN3CCOCC3)c(C)n2-c2ccc(Cl)cc2)cc1",
    "observed.measurement": 1.3
  }
]

###

assay: Vero cytotoxicity assay (MTT); settings: African green monkey, Vero cells

[
  {
    "substance.smiles": "NNC(=O)c1ccncc1",
    "CC50 at 72 h": "> 256 µM"
  }
]

###

Below is a list of entries, each paired with its recorded MIC value.
tested on: M. tuberculosis H37Rv; assay: microbe, parasite or virus in culture; format: cell-based; conditions: Mycobacterium tuberculosis, aerobic conditions

[
  {
    "substance.smiles": "CCc1ccc(-c2cc(CN3CCOCC3)c(C)n2-c2ccc(Cl)cc2)cc1",
    "units.label": "µM",
    "MIC": 0.2
  },
  {
    "substance.smiles": "COc1ccc(-n2c(-c3ccc(C(C)C)cc3)cc(CN3CCOCC3)c2C)cc1",
    "units.label": "µM",
    "MIC": 0.3
  },
  {
    "substance.smiles": "Cc1c(CN2CCN(C)CC2)cc(-c2ccc(Cl)cc2)n1-c1ccc(Cl)cc1",
    "units.label": "µM",
    "MIC": 5
  },
  {
    "substance.smiles": "CCc1ccc(-n2c(-c3ccc(Cl)cc3)cc(CN3CCOCC3)c2C)cc1",
    "units.label": "µM",
    "MIC": 0.6
  },
  {
    "substance.smiles": "COc1ccc(-n2c(-c3ccc(C)cc3)cc(CN3CCOCC3)c2C)cc1",
    "units.label": "µM",
    "MIC": 2
  },
  {
    "substance.smiles": "CCc1ccc(-c2cc(CN3CCOCC3)c(C)n2-c2ccc(F)cc2)cc1",
    "units.label": "µM",
    "MIC": 0.2
  },
  {
    "substance.smiles": "Cc1ccc(-c2cc(CN3CCOCC3)c(C)n2-c2ccc(Cl)cc2)cc1",
    "units.label": "µM",
    "MIC": 0.6
  },
  {
    "substance.smiles": "CCc1ccc(-n2c(-c3ccc(OC)cc3)cc(CN3CCOCC3)c2C)cc1",
    "units.label": "µM",
    "MIC": 0.3
  },
  {
    "substance.smiles": "Cc1c(CN2CCOCC2)cc(-c2ccc(C(C)C)cc2)n1-c1ccc(F)cc1",
    "units.label": "µM",
    "MIC": 0.12
  },
  {
    "substance.smiles": "Cc1c(CN2CCOCC2)cc(-c2ccc(C(C)C)cc2)n1-c1ccc(Cl)cc1",
    "units.label": "µM",
    "MIC": 0.6
  },
  {
    "substance.smiles": "CCCc1ccc(-c2cc(CN3CCOCC3)c(C)n2-c2ccc(Cl)cc2)cc1",
    "units.label": "µM",
    "MIC": 2
  },
  {
    "substance.smiles": "Cc1ccc(-c2cc(CN3CCOCC3)c(C)n2-c2ccc(F)cc2)cc1",
    "units.label": "µM",
    "MIC": 0.3
  }
]

###

assay: physchem; settings: pH 2

[
  {
    "substance.smiles": "CCCc1ccc(-c2cc(CN3CCOCC3)c(C)n2-c2ccc(OC)cc2)cc1",
    "chromatographic logD": 1.4
  },
  {
    "substance.smiles": "CCc1ccc(-n2c(-c3ccc(Cl)cc3)cc(CN3CCOCC3)c2C)cc1",
    "chromatographic logD": 1.54
  },
  {
    "substance.smiles": "CSc1ccc(-c2cc(CN3CCOCC3)c(C)n2-c2ccc(F)cc2)cc1",
    "chromatographic logD": 1.13
  },
  {
    "substance.smiles": "COc1ccc(-c2cc(CN3CCOCC3)c(C)n2-c2ccc(F)cc2)cc1",
    "chromatographic logD": 0.93
  },
  {
    "substance.smiles": "Cc1c(CN2CCOCC2)cc(-c2ccc(C(C)C)cc2)n1-c1ccc(Cl)cc1",
    "chromatographic logD": 1.56
  },
  {
    "substance.smiles": "CCc1ccc(-n2c(-c3ccc(OC)cc3)cc(CN3CCOCC3)c2C)cc1",
    "chromatographic logD": 1.24
  },
  {
    "substance.smiles": "Cc1c(CN2CCOCC2)cc(-c2ccc(C(C)C)cc2)n1-c1ccc(F)cc1",
    "chromatographic logD": 1.47
  },
  {
    "substance.smiles": "COc1ccc(-n2c(-c3ccc(C)cc3)cc(CN3CCOCC3)c2C)cc1",
    "chromatographic logD": 1.04
  },
  {
    "substance.smiles": "CCCc1ccc(-c2cc(CN3CCOCC3)c(C)n2-c2ccc(Cl)cc2)cc1",
    "chromatographic logD": 1.61
  }
]

###

experiment: Oral pharmacokinetic studies in mice, peripheral total blood; conditions: female, C57BL/6, mouse, whole blood, 27.5 mg/kg

[
  {
    "substance.smiles": "COc1c(N2C[C@@H]3CCCN[C@@H]3C2)c(F)cc2c(=O)c(C(=O)O)cn(C3CC3)c12",
    "AUC(0-inf) [µM·h]": 9.4
  }
]

###

test: in vitro; settings: African green monkey
quantity.name: log10 of CC50 at 72 h (log10 of the value in µM)

[
  {
    "molecule": "CCc1ccc(-c2cc(CN3CCOCC3)c(C)n2-c2ccc(F)cc2)cc1 [Compound 8]",
    "observed.measurement": 1.28
  },
  {
    "molecule": "CCCc1ccc(-n2c(-c3ccc(Cl)cc3)cc(CN3CCOCC3)c2C)cc1 [Compound 16]",
    "observed.measurement": 1.78
  },
  {
    "molecule": "CCc1ccc(-n2c(-c3ccc(Cl)cc3)cc(CN3CCOCC3)c2C)cc1 [Compound 15]",
    "observed.measurement": 2.23
  },
  {
    "molecule": "COc1ccc(-n2c(-c3ccc(C)cc3)cc(CN3CCOCC3)c2C)cc1 [Compound 18]",
    "observed.measurement": 2.32
  },
  {
    "molecule": "Cc1c(CN2CCOCC2)cc(-c2ccc(Cl)cc2)n1-c1ccc(C(C)C)cc1 [Compound 17]",
    "observed.measurement": 2.24
  },
  {
    "molecule": "CSc1ccc(-c2cc(CN3CCSCC3)c(C)n2-c2ccc(F)cc2)cc1 [Compound 4]",
    "observed.measurement": 1.18
  },
  {
    "molecule": "COc1ccc(-c2cc(CN3CCOCC3)c(C)n2-c2ccc(C)cc2)cc1 [Compound 22]",
    "observed.measurement": 1.70
  },
  {
    "molecule": "Cc1c(CN2CCOCC2)cc(-c2ccc(C(C)C)cc2)n1-c1ccc(Cl)cc1 [Compound 13]",
    "observed.measurement": 2.38
  },
  {
    "molecule": "COc1ccc(-n2c(-c3ccc(C(C)C)cc3)cc(CN3CCOCC3)c2C)cc1 [Compound 21]",
    "observed.measurement": 1.45
  },
  {
    "molecule": "COc1ccc(-c2cc(CN3CCOCC3)c(C)n2-c2ccc(F)cc2)cc1 [Compound 6]",
    "observed.measurement": 1.77
  },
  {
    "molecule": "CSc1ccc(-c2cc(CN3CCOCC3)c(C)n2-c2ccc(F)cc2)cc1 [Compound 7]",
    "observed.measurement": 1.65
  },
  {
    "molecule": "Cc1ccc(-n2c(-c3ccc(Cl)cc3)cc(CN3CCOCC3)c2C)cc1 [Compound 14]",
    "observed.measurement": 0.97
  }
]

###

Each item that follows carries a reported fraction unbound at 1 µM.
assay: in vitro; conditions: plasma, pH 7.4

[
  {
    "substance.smiles": "Cc1c(CN2CCOCC2)cc(-c2ccc(C(C)C)cc2)n1-c1ccc(Cl)cc1",
    "fraction unbound at 1 µM": "< 0.001"
  },
  {
    "substance.smiles": "CCc1ccc(-n2c(-c3ccc(Cl)cc3)cc(CN3CCOCC3)c2C)cc1",
    "fraction unbound at 1 µM": "< 0.001"
  },
  {
    "substance.smiles": "CCc1ccc(-c2cc(CN3CCOCC3)c(C)n2-c2ccc(F)cc2)cc1",
    "fraction unbound at 1 µM": 0.006
  },
  {
    "substance.smiles": "COc1ccc(-n2c(-c3ccc(C(C)C)cc3)cc(CN3CCOCC3)c2C)cc1",
    "fraction unbound at 1 µM": 0.001
  },
  {
    "substance.smiles": "CCc1ccc(-c2cc(CN3CCOCC3)c(C)n2-c2ccc(Cl)cc2)cc1",
    "fraction unbound at 1 µM": "< 0.001"
  },
  {
    "substance.smiles": "CSc1ccc(-c2cc(CN3CCOCC3)c(C)n2-c2ccc(F)cc2)cc1",
    "fraction unbound at 1 µM": 0.004
  },
  {
    "substance.smiles": "Cc1c(CN2CCOCC2)cc(-c2ccc(C(C)C)cc2)n1-c1ccc(F)cc1",
    "fraction unbound at 1 µM": "< 0.001"
  }
]

Recorded values, source paper PMC3578785.
